Test: Viability Counterscreen for Confirmatory qHTS for Inhibitors of ATXN expression; further: nearly all actives have a fitted effect of over 50% in size
Details: HEK-293 ATXN2-luc cells viability, CellTiter-Fluor, 24 h
About 260 (12%) of roughly 2,100 compounds were called active. Not shown: some 58% with an inconclusive outcome. The call rests on the fitted dose curve; in most records, active means well fitted cell-killing curve with a large enough effect; inconclusive means small, poorly fitted or top-dose-only effect, or effect the other way; inactive means flat fitted curve, though single readings scatter. The list shows a part of the results.
Hi there, use one of these labels in your reply, thanks! active, inactive

Record lookup: outcome of this test for C=CCn1cnc2c(c1=O)c1nc3ccccc3nc1n2/N=C/c1cc(OC)c(OC)c(OC)c1 ?
active

Record lookup: outcome of this test for O=C(CP(=O)(c1ccccc1)c1ccccc1)N/N=C/c1cc(Br)cc(Br)c1O ?
inactive

Record lookup: outcome of this test for CCC1=C(OC(=O)N(CC)CC)N2C(=O)OC(=NCCc3c[nH]c4ccccc34)[C@]2(Cc2ccccc2)[C@H]2C1=CC[C@H]1C(=O)N(c3ccccc3)C(=O)[C@H]12 ?
inactive

Record lookup: outcome of this test for O=C(CNC(=O)c1cccc(Br)c1)N/N=C/c1cc(Br)cc(Br)c1O ?
inactive

Record lookup: outcome of this test for COc1ccc(C(=O)NCC(=O)N/N=C/c2ccc([N+](=O)[O-])s2)cc1OC ?
active

====

Assay: Viability Counterscreen for Confirmatory qHTS for Inhibitors of ATXN expression; further: nearly all actives have a fitted effect of over 50% in size
Settings: HEK-293 ATXN2-luc cells viability, CellTiter-Fluor, 24 h
Hit rate of the full screen: of about 2,100 compounds, about 260 (12%) were called active. Inconclusive results (about 58%) are left out. Calls come from the whole dose curve; as a rule, active = well fitted cell-killing curve with a large enough effect; inconclusive = small, poorly fitted or top-dose-only effect, or effect the other way; inactive = flat fitted curve, though single readings scatter. This is one part of the list.
Hi there, use one of these labels in your reply, thanks! active, inactive

Record lookup: outcome of this test for CN(CCOc1ccc(Br)cc1)CC(O)COc1ccc(C#N)cc1 (stereo unspecified) ?
inactive

Record lookup: outcome of this test for N#Cc1c(Oc2ccc3ccccc3c2)sc(C(=O)c2ccccc2)c1N ?
inactive

Record lookup: outcome of this test for CCN(CC)CCNC(=O)c1ccc(NC(=O)Cc2cccc3ccccc23)cc1 ?
inactive

Record lookup: outcome of this test for CN(CC(=O)Nc1cccc(F)c1)CC(=O)Nc1cccc2ccccc12 ?
inactive

Record lookup: outcome of this test for CCN(CC)CCC(=O)Nc1cccc2c1C(=O)c1ccccc1C2=O ?
active

Record lookup: outcome of this test for COc1ccc(-c2c[n+]3c4n2CCCCC4=C(c2ccc(Br)cc2)C3)cc1 ?
inactive

Record lookup: outcome of this test for CC(C)(C)c1ccc(NC(=O)N2CCCN(c3c(Cl)cncc3Cl)CC2)cc1 ?
inactive

Record lookup: outcome of this test for COc1ccc(N2CCN(c3ccnc4cc(Cl)ccc34)CC2)cc1 ?
inactive

Record lookup: outcome of this test for Cc1ccc(/C=C2/CNC/C(=C/c3ccc(C)cc3)C2=O)cc1 ?
active

Record lookup: outcome of this test for CCCCCc1ccc(OCCC[n+]2ccccc2)c(CCCCC)c1 ?
active

Record lookup: outcome of this test for CC1(C)Cc2ccccc2C2=NNC(=O)C2=N1 ?
active

====

Test: Viability Counterscreen for Confirmatory qHTS for Inhibitors of ATXN expression; further: nearly all actives have a fitted effect of over 50% in size
Conditions: HEK-293 ATXN2-luc cells viability, CellTiter-Fluor, 24 h
About 260 (12%) of roughly 2,100 compounds were called active. About 58% were inconclusive and are not listed. Calls follow the shape of the dose curve; as a rule, active = well fitted cell-killing curve with a large enough effect; inconclusive = small, poorly fitted or top-dose-only effect, or effect the other way; inactive = flat fitted curve, though single readings scatter. The list shows a part of the results.
Hi there, use one of these labels in your reply, thanks! active, inactive

Record lookup: outcome of this test for Nc1cccc2c1C(=O)N(C(=O)/C=C/c1cccc(Br)c1)C2=O ?
inactive

Record lookup: outcome of this test for N#C/C(=N\Nc1cccc([N+](=O)[O-])c1)C(=O)c1ccc(Br)cc1 ?
active

Record lookup: outcome of this test for Cc1cc(C)n(CCC(=O)N/N=C/c2ccc(O)cc2O)n1 ?
inactive

Record lookup: outcome of this test for Cn1c(SCC(=O)N/N=C/c2ccc([N+](=O)[O-])s2)nnc1-c1ccccc1 ?
active

Record lookup: outcome of this test for CCc1nc2ccccc2c(C(=O)OCC(=O)Nc2cccc(S(=O)(=O)NC3=NCCCCC3)c2)c1C ?
active

Record lookup: outcome of this test for COc1ccc(/C(N)=N/OC(=O)N2CCOCC2)cc1 ?
inactive

Record lookup: outcome of this test for O=C(N/N=C/c1ccc(O)cc1O)c1ccncc1 ?
inactive

Record lookup: outcome of this test for Cc1cc([N+](=O)[O-])nn1Cc1ccc(C(=O)N/N=C/c2ccc(O)cc2O)cc1 ?
active

Record lookup: outcome of this test for CC(NC(=O)Nc1cccc([N+](=O)[O-])c1)(C(F)(F)F)C(F)(F)F ?
inactive

Record lookup: outcome of this test for COc1cc(OC)cc(-c2cc3nc(C)c(CCC(=O)O)c(C)n3n2)c1 ?
inactive

Record lookup: outcome of this test for C=CCn1c(COc2ccccc2)nnc1SCC(=O)N/N=C/c1cc(Cl)ccc1O ?
inactive

Record lookup: outcome of this test for Cc1cc(C(=O)CN2C(=O)c3ccccc3S2(=O)=O)c(C)n1CC1CCCO1 (configuration not stated) ?
inactive

Record lookup: outcome of this test for CCn1c2ccccc2c2cc(NC(=O)COC(=O)C3CCC(=O)N3)ccc21 (configuration not stated) ?
inactive

Record lookup: outcome of this test for CCCCC(=O)NNC(=S)NC(=O)c1ccc(C)cc1 ?
inactive

Record lookup: outcome of this test for COc1ccc(O)c(/C=N/NC(=O)CSc2nnc(C)n2-c2ccccc2)c1 ?
inactive

Record lookup: outcome of this test for COc1ccc(OC)c(C(=O)/C=C/c2ccccc2C(F)(F)F)c1 ?
inactive

Record lookup: outcome of this test for COc1ccc2c(c1)C(SCC(=O)NCCc1ccc(Cl)cc1)CC(C)(C)O2 (configuration not stated) ?
inactive

Record lookup: outcome of this test for Cc1ccc(C(=O)CN2C(=O)c3ccccc3S2(=O)=O)cc1 ?
inactive

Record lookup: outcome of this test for CCC(C)Sc1cc(C(F)(F)F)c(C(=O)Nc2ccc(Cl)cc2)cn1 (configuration not stated) ?
inactive

Record lookup: outcome of this test for NS(=O)(=O)c1ccc(N2N=C(c3ccc(Br)cc3)CC2c2ccc(F)cc2)cc1 (configuration not stated) ?
inactive

Record lookup: outcome of this test for CCOC(=O)C1=CCN(S(=O)(=O)c2ccc(C)cc2)C1c1cccc(Cl)c1 (configuration not stated) ?
inactive

Record lookup: outcome of this test for O=C(CC1Sc2ccccc2NC1=O)NNc1cccc(Cl)c1Cl (configuration not stated) ?
inactive
